Subject of test: Fibroblast growth factor receptor 1 (Homo sapiens, UniProt P11362)
Sequence (P11362 whole entry): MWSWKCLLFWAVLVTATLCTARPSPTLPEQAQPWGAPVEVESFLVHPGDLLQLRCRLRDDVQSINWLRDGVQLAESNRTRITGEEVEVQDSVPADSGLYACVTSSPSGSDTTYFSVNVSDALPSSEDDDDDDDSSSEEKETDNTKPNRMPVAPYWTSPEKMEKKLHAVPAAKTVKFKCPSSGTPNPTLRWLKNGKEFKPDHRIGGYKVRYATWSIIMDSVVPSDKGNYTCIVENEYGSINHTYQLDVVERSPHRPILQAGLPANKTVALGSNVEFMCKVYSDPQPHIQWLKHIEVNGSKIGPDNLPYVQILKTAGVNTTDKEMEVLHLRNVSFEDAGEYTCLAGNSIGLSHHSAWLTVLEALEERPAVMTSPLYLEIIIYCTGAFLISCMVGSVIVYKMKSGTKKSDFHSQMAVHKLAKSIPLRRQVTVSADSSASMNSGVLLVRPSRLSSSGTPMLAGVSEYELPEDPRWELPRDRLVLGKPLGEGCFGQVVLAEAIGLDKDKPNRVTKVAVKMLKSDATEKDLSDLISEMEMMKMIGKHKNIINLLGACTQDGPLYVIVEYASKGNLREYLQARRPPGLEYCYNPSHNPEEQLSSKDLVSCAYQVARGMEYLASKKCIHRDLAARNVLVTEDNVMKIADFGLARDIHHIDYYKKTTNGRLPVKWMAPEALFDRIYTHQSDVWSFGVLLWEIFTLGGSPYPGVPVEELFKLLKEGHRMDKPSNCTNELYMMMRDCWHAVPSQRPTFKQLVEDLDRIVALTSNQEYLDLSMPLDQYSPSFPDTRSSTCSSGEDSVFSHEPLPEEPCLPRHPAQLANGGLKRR
Procedure summary: Binding affinity to N-terminal 6xHis-tagged human recombinant FGFR1 (458 to 765) by isothermal titration calorimetric analysis
Recorded Kd values for a group of compounds are listed next.

| Sample smiles | Kd / nM |
| --- | --- |
| COc1cc(CCc2cc(Nc3ccnc(NCc4cc(C)no4)n3)n[nH]2)cc(OC)c1 | 5.8 |
| COc1ccc(CCc2cc(Nc3ccnc(NCc4cc(C)no4)n3)n[nH]2)cc1OC | 447 |
